Value source: ChEMBL document CHEMBL4229377

procedure.summary: Half life in human liver microsomes at 10 uM preincubated for 10 mins followed by NADPH addition and measured up to 60 mins
Assay type: ADME, microsome
measure: half-life at 10 µM (min)
One number for each entry, in min.

{"columns": ["compound", "half-life at 10 µM (min)"],
 "data": [
  ["COc1ccc(COC(=O)[C@@H]2CCC3=Nc4ccccc4CN32)cc1", 1.2],
  ["C[C@@H]([C@@H](O)c1ccc(O)cc1)N1CCC(Cc2ccccc2)CC1 [(S)-IFENPRODIL]", 12.8]
]}

*Q* Any idea what its half-life at 10 µM is? The compound is O=C(NCCc1ccc(O)cc1)[C@@H]1CCC2=Nc3ccc(Br)cc3CN21
*A* 29.9
